The reported measurements were obtained from patent US12331040B2.

Test system: HCI-H358 cells
Test: MTT cell proliferation assay
Type: cell-based
Details: 72-hour MTT
Readout Label: pIC50
Hey, just a heads up that pIC50 is the negative log base 10 of the concentration in molar.

Noted for `Nc1ccc(/C=C/C(=O)NCc2cc3cc(-c4ccc(C(=O)N5CCC(F)(F)CC5)cn4)cc(C(F)(F)F)c3o2)cn1` : its pIC50 reads 6.10

====

Tested on: SW-1417 cells
Test: MTT cell proliferation assay
Format: cell-based
Conditions: Homo sapiens, SW1417, 72-hour MTT
Readout Label: IC50 (µM)
Only the number, expressed in µM, is required.

The reported value for Nc1ccc(/C=C/C(=O)NCc2cc3cc(-c4ccc(C(=O)N5CCC(F)(F)CC5)cn4)cc(C(F)(F)F)c3o2)cn1 [Compound 585] in terms of IC50 is 1.27

====

Tested on: Z138 cells
Test: MTT cell proliferation assay
Format: cell-based
Settings: Homo sapiens, Z-138, Z138 cells; approximately 64-72 hours incubation; read-out: MTT Assay IC50 Z-138
Protocol: The MTT cell proliferation assay was used to study the cytotoxic properties of the compounds. The assay was performed according to the method described by Roche Molecular Biochemicals, with minor modifications. […] After solubilization, the formazan dye was quantitated using a scanning multi-well spectrophotometer (ELISA reader). […] All optical densities were measured at 490 nm using a Vmax Kinetic Microplate Reader (Molecular Devices). […]
pIC50: −log10 of the molar value.
Readout Label: pIC50

So for CC1(C)CN(S(=O)(=O)c2ccc(-c3cc(Cl)c4oc(CNC(=O)/C=C/c5ccc(N)nc5)cc4c3)cc2)C1 [Compound 555] , the logged pIC50 turned out to be 5.30 to 7.00

For reference, reported pIC50 for O=C(/C=C/c1ccc(Cl)nc1)NCc1cc2cc(-c3ccc(C(=O)N4CCOCC4)cc3)cc(Cl)c2o1 [Compound 537] stands at < 5.00

For reference, reported pIC50 for COc1ccc(-c2ccc(S(=O)(=O)N3CCOCC3)cc2)c2cc(CNC(=O)/C=C/c3ccc(N)nc3)oc12 [Compound 554] stands at > 7.00

Note to self: pIC50 recorded for Nc1ccc(/C=C/C(=O)NCc2cc3cc(-c4ccc(C(=O)N5CCOCC5)cc4)cc(Cl)c3o2)cc1 [Compound 550] was < 5.00

====

System: MM1S cells
Assay: MTT cell proliferation assay
Type: cell-based
Details: Homo sapiens, MM1.S; MM1S cells; 72-hour MTT; read-out: MM1S MTT IC50
Method: The MTT cell proliferation assay was used to study the cytotoxic properties of the compounds. The assay was performed according to the method described by Roche Molecular Biochemicals, with minor modifications. […] After solubilization, the formazan dye was quantitated using a scanning multi-well spectrophotometer (ELISA reader). […] All optical densities were measured at 490 nm using a Vmax Kinetic Microplate Reader (Molecular Devices). […]
Readout Label: pIC50
# reply with the number alone; pIC50 is -log10 of concentration in mol/L

The reported pIC50 of the compound `Nc1ccc(/C=C/C(=O)NCc2cc3cc(-c4ccc(S(=O)(=O)N5CCOCC5)cc4)cc(Cl)c3o2)cn1` was 6.54

`Nc1ccc(/C=C/C(=O)NCc2cc3cc(-c4ccc(C(=O)N5CCC(F)(F)CC5)cn4)cc(C(F)(F)F)c3o2)cn1` has a reported pIC50 of 7.05

Field pIC50 (entry `Nc1ccc(/C=C/C(=O)NCc2cc3cc(-c4ccc(C(=O)N5CC[C@H](F)C5)cc4)cc(C(F)(F)F)c3o2)cn1` ) reads 6.51

Lab note: measured pIC50 of `Nc1ccc(/C=C/C(=O)NCc2cc3cc(-c4ccc(C(=O)N5CCOCC5)cc4)cc(C(F)(F)F)c3o2)cn1` was 7.05

====

Test system: MDA-MB-468 cells
Assay: MTT cell proliferation assay
Type: cell-based
Conditions: Homo sapiens; MDA-MB-468 cells; 72-hour MTT; read-out: MDA-MB-468 MTT IC50
Assign pIC50 to each entry below.
On this scale, pIC50 is minus log10 of a concentration expressed in M (mol/L).

Form field, pIC50 with MDA-MB-468 cells, item Nc1ccc(/C=C/C(=O)NCc2cc3cc(-c4ccc(S(=O)(=O)N5CCOCC5)cc4)cc(Cl)c3o2)cn1 [Compound 504] : 6.00

Note to self: pIC50 of Nc1ccc(/C=C/C(=O)NCc2cc3cc(-c4ccc(C(=O)N5CCOCC5)cc4)cc(C(F)(F)F)c3o2)cn1 [Compound 510] with MDA-MB-468 cells was 7.52

pIC50 value, target or system MDA-MB-468 cells, for Nc1ccc(/C=C/C(=O)NCc2cc3cc(-c4ccc(C(=O)N5CCC(F)(F)CC5)cn4)cc(C(F)(F)F)c3o2)cn1 [Compound 585] : 6.70

====

System: LS-174T cells
Experiment: MTT cell proliferation assay
Format: cell-based
Settings: Homo sapiens, LS174T, 72-hour MTT
Readout Label: IC50 (µM)
Give your result in µM as a bare value.

Reported IC50 (LS-174T cells) for entry `Nc1ccc(/C=C/C(=O)NCc2cc3cc(-c4ccc(C(=O)N5CCC(F)(F)CC5)cn4)cc(C(F)(F)F)c3o2)cn1` is 8.8

====

Could you please report measured IC50 for the items listed next?
Tested on: MDA-MB-468 cells
Experiment: MTT cell proliferation assay
Format: cell-based
Conditions: Homo sapiens; MDA-MB-468 cell line; read-out: MTT Assay IC50, MDA-MB-468

Lab book: IC50 of Nc1ccc(/C=C/C(=O)NCc2cc3cc(-c4ccc(C(=O)N5CCOCC5)cc4)cc(C(F)(F)F)c3o2)cn1 [Compound 510] noted as < 100 nM

Nc1ccc(/C=C/C(=O)NCc2cc3cc(-c4ccc(S(=O)(=O)N5CCOCC5)cc4)cc(Cl)c3o2)cn1 [Compound 504] yielded IC50 of 100 to 5000 nM

====

Test system: PATU-8902 cells
Assay: MTT cell proliferation assay
Type: cell-based
Details: 72-hour MTT
Readout Label: pIC50
Recall that pIC50 is obtained by taking minus log10 of the concentration measured in molar.

Lab note: `Nc1ccc(/C=C/C(=O)NCc2cc3cc(-c4ccc(C(=O)N5CCC(F)(F)CC5)cn4)cc(C(F)(F)F)c3o2)cn1` gave pIC50 of 6.29

====

Tested on: Z138 cells
Experiment: MTT cell proliferation assay
Type: cell-based
Details: Homo sapiens, Z-138, Z138 cells; approximately 64-72 hours incubation; read-out: MTT Assay IC50 Z-138
pIC50: −log10 of the molar value.
Readout Label: pIC50

Form: compound = `O=C(/C=C/c1cccnn1)NCc1cc2cc(-c3ccc(C(=O)N4CCOCC4)cc3)cc(Cl)c2o1` ; pIC50 = 5.00 to 5.30

Reported pIC50 of `Nc1ccc(/C=C/C(=O)NCc2cc3cc(-c4ncc(C(=O)N5CCNCC5)cn4)cc(C(F)(F)F)c3o2)cn1` : 5.30 to 7.00

For this compound ( `Nc1ccc(/C=C/C(=O)NCc2cc3cc(-c4ccc(C(=O)N5CCOCC5)cc4)cc(C(F)F)c3o2)cn1` ), measured pIC50 is 5.30 to 7.00

The reported value for `Nc1ccc(/C=C/C(=O)NCc2cc3cc(-c4ccc(F)c(C(=O)N5CCOCC5)c4)cc(C(F)(F)F)c3o2)cn1` in terms of pIC50 is > 7.00

Looking up `CN1CCN(C(=O)c2ccc(-c3cc(C(F)(F)F)c4oc(CNC(=O)/C=C/c5ccc(N)nc5)cc4c3)nc2)CC1` , I found its pIC50 recorded as > 7.00

Value of measured pIC50 for the entry `Cc1noc(C)c1/C=C/C(=O)NCc1cc2cc(-c3ccc(C(=O)N4CCOCC4)cc3)cc(Cl)c2o1` : 5.30 to 7.00

Sample `CC(C)(NC(=O)/C=C/c1ccc(N)nc1)c1cc2cc(-c3ccc(C(=O)N4CCOCC4)cc3)cc(Cl)c2o1` ; pIC50 observed: < 5.00

====

Tested on: Z138 cells
Assay: MTT cell proliferation assay
Assay type: cell-based
Settings: Homo sapiens, Z-138, Z138 cells; approximately 64-72 hours incubation; read-out: MTT Assay IC50 Z-138
pIC50: −log10 of the molar value.
Readout Label: pIC50

Consider `Nc1ccc(/C=C/C(=O)NCc2cc3cc(-c4ccc(C(=O)N5CC[C@H](F)C5)cc4)cc(C(F)(F)F)c3o2)cn1` . Its measured pIC50 is 5.30 to 7.00

Entry under test: `Nc1ccc(/C=C/C(=O)NCc2cc3cc(-c4ccc(OC(=O)N5CCOCC5)cc4)cc(Cl)c3o2)cn1` . Its pIC50 was 5.30 to 7.00

Data point: `COc1cc(-c2ccc(C(=O)N3CCC(F)(F)CC3)cn2)cc2cc(CNC(=O)/C=C/c3ccc(N)nc3)oc12` ; pIC50 = > 7.00

Form: compound = `Nc1ccc(/C=C/C(=O)NCc2cc3cc(-c4ccc(C(=O)N5CCOCC5)c(F)c4)cc(Cl)c3o2)cn1` ; pIC50 = 5.30 to 7.00
